Attribution: PubChem BioAssay (NCATS)

Tested on: NIH3T3
Experiment: Cytotoxic Profiling of Annotated Libraries Using Quantitative High-Throughput Screening (AID 1296008); also: nearly all actives have a fitted effect of over 60% in size
Details: Five cell lines viability, CellTiter-Glo ATP luminescence, 48-72 h
Records with an inconclusive call do not appear. Calls of active or inactive are those of the source. Calls follow the shape of the dose curve; as a rule, active = well fitted inhibition curve with a large enough effect; inconclusive = small, poorly fitted or top-dose-only effect; inactive = flat fitted curve, though single readings scatter.
Outcomes: active, inactive

>>> labelclass("Nc1ccc(S(N)(=O)=O)cc1")
"inactive"
>>> labelclass("CC(C)c1nc(CN(C)C(=O)N[C@H](C(=O)N[C@@H](Cc2ccccc2)C[C@H](O)[C@H](Cc2ccccc2)NC(=O)OCc2cncs2)C(C)C)cs1")
"inactive"
>>> labelclass("COC(=O)C1=C(C)NC(C)=C(C(=O)OCCCN2CCC(c3ccccc3)(c3ccccc3)CC2)C1c1cccc([N+](=O)[O-])c1 (stereo not drawn)")
"inactive"
>>> labelclass("CC(C)[N+]1(C)[C@@H]2CC[C@H]1CC(OC(=O)C(CO)c1ccccc1)C2 (stereo partly drawn)")
"inactive"
>>> labelclass("COc1cc2c(cc1OC)C1CC(=O)C(CC(C)C)CN1CC2 (stereo not drawn)")
"inactive"
>>> labelclass("CCCCC(CC)COC(=O)C(C#N)=C(c1ccccc1)c1ccccc1 (stereo not drawn)")
"inactive"
>>> labelclass("C[C@H](Cn1cnc2c(N)ncnc21)OCP(=O)(O)O")
"inactive"
>>> labelclass("N[C@@H](Cc1cc(I)c(Oc2cc(I)c(O)c(I)c2)c(I)c1)C(=O)O")
"inactive"
>>> labelclass("O=C(NCCO[N+](=O)[O-])c1cccnc1")
"inactive"
>>> labelclass("Nc1nc(OCc2ccccc2)c2[nH]cnc2n1")
"inactive"
>>> labelclass("Oc1ccc(OCc2ccccc2)cc1")
"inactive"
>>> labelclass("CCC1=C(C)CN(C(=O)NCCc2ccc(S(=O)(=O)NC(=O)NC3CCC(C)CC3)cc2)C1=O (stereo not drawn)")
"inactive"
>>> labelclass("OC(CN1CCN(c2cccc(Cl)c2)CC1)C(c1ccccc1)c1ccccc1 (stereo not drawn)")
"inactive"
>>> labelclass("O=C1NC(=O)C(c2ccccc2[N+](=O)[O-])=C1Nc1ccc(O)c(Cl)c1")
"inactive"
>>> labelclass("O=C(O)c1cccnc1Nc1cccc(C(F)(F)F)c1")
"inactive"
>>> labelclass("CC(C)[C@H](N)C(=O)OCCOCn1cnc2c(=O)[nH]c(N)nc21")
"inactive"
>>> labelclass("Nc1nc(Cl)nc2c1ncn2[C@H]1C[C@H](O)[C@@H](CO)O1")
"active"
>>> labelclass("COc1cc(C(C)=O)ccc1OCCCN1CCC(c2noc3cc(F)ccc23)CC1")
"inactive"
>>> labelclass("CC(C)(S)[C@@H](N)C(=O)O")
"inactive"
>>> labelclass("Cc1ccc(NC(=O)c2ccc(CN3CCN(C)CC3)cc2)cc1Nc1nccc(-c2cccnc2)n1")
"inactive"
>>> labelclass("Cc1cc2cc3c(C)cc(=O)oc3c(C)c2o1")
"inactive"
>>> labelclass("Nc1ccn([C@@H]2O[C@H](CO)[C@@H](O)C2O)c(=O)n1 (stereo partly drawn)")
"inactive"
>>> labelclass("CNC[C@H](O)c1ccc(O)c(O)c1")
"inactive"
